Reference for the values: patent US8445677B2

Listed here: items and their measured pIC50.
Test system: HEY
Experiment: MTT cytotoxicity assay (Example 1)
Type: cell-based, human
Conditions: Homo sapiens, 72 h
pIC50: −log10 of the molar value.

Below: 3 molecules and their reported pIC50.
O=C(O)c1cc(-c2ccc(C=NNc3nc4nonc4nc3Nc3ccc(F)cc3)o2)ccc1Cl < 5.00
Cc1cc(-c2ccc(/C=N/Nc3nc4nonc4nc3Nc3ccccc3F)o2)c(C)c([N+](=O)[O-])c1 6.10
COc1ccc(/C=N/Nc2nc3nonc3nc2Nc2ccccc2OC)cc1Br < 5.00

Query: Reported pIC50, molecule "COC(=O)c1ccc(/C=N/Nc2nc3nonc3nc2Nc2ccccc2F)cc1" : ____
Response: 5.00

Query: Next up: "CCCn1c(=O)c(C(=O)Nc2nnc(CC(C)C)s2)c(O)c2ccccc21"
Response: < 4.70

Query: Next up: "CCCc1nc2ccccc2c(=O)n1NC(=O)c1c(O)c2cccc3c2n(c1=O)CCC3"
Response: < 4.70

Query: Next up: "C/C(=N\C(=N)Nc1nc(C)c2cc(C)ccc2n1)c1ccccc1C(=O)O"
Response: 5.30

Query: Next up: "O=C(O)c1cc(-c2ccc(C=NNc3nc4nonc4nc3Nc3cccc(Br)c3)o2)ccc1O"
Response: < 5.00
